- EXPERIMENTAL_DETAILS: Tissue distribution of syringic acid in liver and kidney
- Format: in vivo, Sprague Dawley rats
- STATED_CONDITIONS: Sprague Dawley, rat, liver, po, 100 mg/kg; read-out: Cmax
TEST_READOUT: Cmax (ng/g)
All answers are understood in ng/g, so give the number only.

Supply Cmax value. Item: COc1cc(C(=O)O)cc(OC)c1O [Syringic Acid, 3,5-Dimethoxy-4-hydroxybenzoic acid]
16300

---

- EXPERIMENTAL_DETAILS: Oral and intraperitoneal bioavailability, syringic acid in blood
- Type: in vivo, Sprague Dawley rats
- STATED_CONDITIONS: Sprague Dawley, rat, serum, ip, 25 mg kg^−1
TEST_READOUT: half-life (h)
All answers are understood in h, so give the number only.

Supply half-life value. Item: COc1cc(C(=O)O)cc(OC)c1O [Syringic Acid, 3,5-Dimethoxy-4-hydroxybenzoic acid]
16.7

---

- EXPERIMENTAL_DETAILS: Tissue distribution of syringic acid in liver and kidney
- Type: in vivo, Sprague Dawley rats
- STATED_CONDITIONS: Sprague Dawley, rat, kidney, po, 100 mg/kg
TEST_READOUT: Tmax
Remember to put the unit after the number in your answer.

Supply Tmax value. Item: COc1cc(C(=O)O)cc(OC)c1O [Syringic Acid, 3,5-Dimethoxy-4-hydroxybenzoic acid]
28.2 min

---

- EXPERIMENTAL_DETAILS: Tissue distribution of syringic acid in liver and kidney
- Format: in vivo, Sprague Dawley rats
- STATED_CONDITIONS: Sprague Dawley, rat, liver, po, 100 mg/kg
TEST_READOUT: half-life (h)
All answers are understood in h, so give the number only.

Supply half-life value. Item: COc1cc(C(=O)O)cc(OC)c1O [Syringic Acid, 3,5-Dimethoxy-4-hydroxybenzoic acid]
38.1

---

- EXPERIMENTAL_DETAILS: Oral and intraperitoneal bioavailability, syringic acid in blood
- Assay type: in vivo, Sprague Dawley rats
- STATED_CONDITIONS: Sprague Dawley, rat, serum, po, 100 mg/kg
TEST_READOUT: half-life (h)
All answers are understood in h, so give the number only.

Supply half-life value. Item: COc1cc(C(=O)O)cc(OC)c1O [Syringic Acid, 3,5-Dimethoxy-4-hydroxybenzoic acid]
1.98

---

- EXPERIMENTAL_DETAILS: Oral and intraperitoneal bioavailability, syringic acid in blood
- Type: in vivo, Sprague Dawley rats
- STATED_CONDITIONS: Sprague Dawley, rat, serum, ip, 25 mg kg^−1
TEST_READOUT: Tmax (min)
All answers are understood in min, so give the number only.

Supply Tmax value. Item: COc1cc(C(=O)O)cc(OC)c1O [Syringic Acid, 3,5-Dimethoxy-4-hydroxybenzoic acid]
56

---

- EXPERIMENTAL_DETAILS: Tissue distribution of syringic acid in liver and kidney
- Assay type: in vivo, Sprague Dawley rats
- STATED_CONDITIONS: Sprague Dawley, rat, kidney, ip, 25 mg kg^−1
TEST_READOUT: half-life (h)
All answers are understood in h, so give the number only.

Supply half-life value. Item: COc1cc(C(=O)O)cc(OC)c1O [Syringic Acid, 3,5-Dimethoxy-4-hydroxybenzoic acid]
80.1

---

- EXPERIMENTAL_DETAILS: Oral and intraperitoneal bioavailability, syringic acid in blood
- Assay type: in vivo, Sprague Dawley rats
- STATED_CONDITIONS: Sprague Dawley, rat, serum, po, 100 mg/kg; read-out: AUC0–72 (converted)
TEST_READOUT: AUC(0-t)
Remember to put the unit after the number in your answer.

Supply AUC(0-t) value. Item: COc1cc(C(=O)O)cc(OC)c1O [Syringic Acid, 3,5-Dimethoxy-4-hydroxybenzoic acid]
23600 ng·h/mL

Sourced from paper PMC12567248
